Molecular target: Alpha-1D adrenergic receptor (Homo sapiens, UniProt P25100)
Sequence (P25100 whole entry): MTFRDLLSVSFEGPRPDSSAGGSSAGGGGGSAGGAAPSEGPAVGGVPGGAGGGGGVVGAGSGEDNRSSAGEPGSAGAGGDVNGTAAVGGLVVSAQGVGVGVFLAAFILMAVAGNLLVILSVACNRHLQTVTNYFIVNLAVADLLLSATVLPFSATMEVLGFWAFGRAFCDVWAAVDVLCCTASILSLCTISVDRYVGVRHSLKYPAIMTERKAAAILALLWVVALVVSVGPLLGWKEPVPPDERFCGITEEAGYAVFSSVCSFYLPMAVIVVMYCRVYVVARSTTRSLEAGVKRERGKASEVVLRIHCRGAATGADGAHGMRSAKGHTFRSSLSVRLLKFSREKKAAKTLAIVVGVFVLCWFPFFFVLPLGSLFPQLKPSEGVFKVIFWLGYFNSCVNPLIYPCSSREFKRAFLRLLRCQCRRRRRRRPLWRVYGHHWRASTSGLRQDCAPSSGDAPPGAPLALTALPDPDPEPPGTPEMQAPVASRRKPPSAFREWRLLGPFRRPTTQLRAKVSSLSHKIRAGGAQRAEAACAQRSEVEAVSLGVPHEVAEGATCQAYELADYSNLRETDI
Parameter Measured: pKi
# pKi: negative log10 of molar concentration; output just the value

Which pKi is listed for Fc1cccc2c1OC1CNCC1O2 (stereo unspecified) [CAS_105182-45-4] ?
6.90
